Assign pIC50 to each entry below.
- targetOrSystem: Ab-15
- assayInfo: competition ELISA: peptide titrated against 1 nM Ab-15; competitor plate-bound CD28
Where no end group is shown, it is not given here.
Schema: pIC50 number; meaning minus log10 of the concentration expressed in molar units.

Query: Form field: reported pIC50 of IDWCPLHLWHECYH (cysteine pairing not given here; also: biotinylated, site not given here, CD28 peptide mask) [Peptide-72]
Reply: 5.82

Query: If you can, please state the reported pIC50 value of LDWCPRHLWALCFN (cysteine pairing not given here; also: biotinylated, site not given here, CD28 peptide mask) [Peptide-70] .
Reply: 6.33

Query: pIC50 lookup needed for IDWCPRYLWDECYN (cysteine pairing not given here; also: biotinylated, site not given here, CD28 peptide mask) [Peptide-71] , thanks.
Reply: 6.85

Query: Request the reported pIC50 associated with IYWCPIDRWNDCYN (cysteine pairing not given here; also: biotinylated, site not given here, CD28 peptide mask) [Peptide-74]
Reply: 6.39

Query: Endpoint output: pIC50 of MDWCPRDLWVHCFA (cysteine pairing not given here; also: biotinylated, site not given here, CD28 peptide mask) [Peptide-41] . Value?
Reply: 6.70
